- Tested on: NCI-H226 lung
- testName: NCI tumour cell line growth inhibition, 48 h; in the data active = GI50 below about 0.43 µM; inactive = the rest
Returns: one label drawn from active, inactive

OC1(c2ccc(Cl)c(C(F)(F)F)c2)CCN(CCCC(c2ccc(F)cc2)c2ccc(F)cc2)CC1
inactive
Cc1ccc(O)cc1Nc1ccnc2ccc(S(C)(=O)=O)cc12
inactive
CCN(CC)Cc1cc(Nc2nc(NC3CCC(N(C)C)CC3)c3ccccc3n2)ccc1OC (centres undefined)
inactive
N#Cc1nc2c(S(=O)(=O)c3ccc(Cl)cc3)c(N)n(Nc3cccc(Cl)c3)c2nc1C#N
active
CCN=c1sc2c(n1NC(=O)c1cc3ccc1CCc1ccc(cc1)CC3)C(=O)c1ccccc1C2=O
inactive

(Q) # outcome recorded in this test, key = CCn1cc(C(=O)O)c(=O)c2cc(F)c(N3CCN(S(=O)(=O)c4cccc5ccccc45)CC3)cc21
(A) inactive

(Q) Fill in: this test's call for CCNc1nc(O)c(/C=C2\C=Nc3ncccc32)s1 is ___
(A) inactive

(Q) Each compound tested received a call. Report the one for O=C1NC(=N[C@@H](CO)c2ccccc2)S/C1=C\c1ccc2ncccc2c1 .
(A) inactive

(Q) So what was the verdict on COc1ccc(C(=O)c2cc(OC)c(OC)c(OC)c2OC)cc1O in this test?
(A) inactive
